Test system: HOP-92 NSCLC
methodNotes: NCI-60 one-dose screen, 48 h
conditionLabel: 10 µM unless noted
The panel holds about 83,000 compounds, 20% with a hit somewhere; the sample as a whole holds those more often. Active and inactive are the calls of the source. How the source made its calls: active means growth percent below 10; inactive means the rest.
Give your call using only these classes: label 1 for active, label 0 for inactive

The following compounds have reported results that may help.
compound: NC(=Nc1ccc(OCCCCCCCCn2cnnn2)cc1)c1ccccc1
labelClass: label 0
//
compound: COc1ccc2[nH]c(=O)c(CSc3ccccc3Nc3nccc(-c4ccc(Cl)cc4)n3)cc2c1
labelClass: label 0
//
compound: O=C(COc1ccc(/C=C2/C(=O)Nc3ccc(Cl)cc32)cc1)Nc1ccc(Br)cc1
labelClass: label 1

Field: outcome | Entry: COc1sc(/C=N/NC(=O)c2[nH]c3ccc(Br)cc3c2-c2ccccc2)cc1Br
label 0

Field: outcome | Entry: Fc1ccc(F)c(CNc2nc(SCCN3CCOCC3)nc3c2cnn3CC(Cl)c2ccc(Br)cc2)c1 (stereo not drawn)
label 0

###

System: HOP-62 NSCLC
methodNotes: NCI-60 one-dose screen, 48 h (100 = growth as untreated, 0 = no growth, -100 = all killed)
conditionLabel: 10 µM unless noted
Procedure: Growth inhibition of the HOP-62 human Non-Small Cell Lung tumor cell line is measured as a screen for anti-cancer activity. Cells are grown in 96 well plates and exposed to the test compound for 48 hours. Compounds are tested at a single concentration, which is 10^-5 M for most compounds. The reported endpoint is percent growth (GI% or GIPRCNT), where numbers from 0 - 100% represent growth inhibition, and numbers from -100% - 0 represent cell death. […]
Compounds without any hit were thinned out: in the full panel of roughly 83,000, 20% have a hit.
# maps each entry to its growth
// return numeric value only (unit: %, not printed)

// below: answered compounds
compound: CCc1ccccc1-c1nc(CN[C@@H]2C[C@@H]3C[C@H]([C@H]2C)C3(C)C)c(C)o1
unitDescriptor: %
growth: -78.9
--
compound: O=C(c1ccc(Cl)cc1)C1[C@H](c2ccccc2Cl)[C@@H](c2ccccc2)NC12C(=O)Nc1ccc(Cl)cc12 (some centres undefined)
unitDescriptor: %
growth: -72.4
--
compound: C=CCSc1nnc(-c2c(C)nc3sccn23)o1
unitDescriptor: %
growth: 106
--
compound: COc1ccc2c(c1)C(Sc1ccc(Cl)cc1)c1c(nc(N)c(C#N)c1N)O2 (centres undefined)
unitDescriptor: %
growth: 61.8
--
compound: Cc1ccc(C2CC(c3ccc(NC(=O)Nc4ccccc4)cc3)=NN2c2ccc(S(C)(=O)=O)cc2)cc1 (centres undefined)
unitDescriptor: %
growth: -39.8

Looking up Cc1nn(-c2ccccc2)c2nc(C)n(CC(=O)N/N=C/c3ccccc3O)c(=O)c12 , I see its growth listed as 31.3

Looking up Cc1ccc(-c2cc(C(=O)N=Nc3c(O)[nH]c4ccc(F)cc34)c3ccccc3n2)cc1 , I see its growth listed as 6.08

Looking up COc1ccc2[nH]c(O)c(N=Nc3nc(-c4ccc(Br)cc4)cs3)c2c1 , I see its growth listed as -10.1

Looking up S=C(Nc1ccccc1)Nc1ccc(OCc2nc3ccc(Cl)cc3[nH]2)cc1 , I see its growth listed as 90.4

Looking up O=C(N/N=C/c1c[nH]c2ccccc12)Nc1ccccc1Cl , I see its growth listed as 18.4

###

# maps each entry to its growth
Test system: KM12 colon
methodNotes: NCI-60 one-dose screen, 48 h (100 = growth as untreated, 0 = no growth, -100 = all killed)
conditionLabel: 10 µM unless noted
This is part of a sample that, as a whole, favours compounds with a hit. Of some 83,000 tested, about 20% had one in any assay.
// return numeric value only (unit: %, not printed)

// below: answered compounds
molecularString: CCN1CCN(Cc2ccc(C(=O)Nc3cccc(Nc4ccc5c(OC)cccc5n4)c3)cc2C(F)(F)F)CC1
reportedMeasurement: -37.6

molecularString: COc1ccc(/C=C/C(=O)c2ccc(S(=O)(=O)NCCNc3nc(N(C)C)nc(N4CCOCC4)n3)cc2)cc1
reportedMeasurement: 64.8

Now, please, on to the next compound.
Looking up COc1cc(CNC(=O)C[C@H](C)CCC=C(C)C)ccc1OCc1cn(-c2ccc(Cl)cc2Cl)nn1 , I see its growth listed as 93.1
